Where do these numbers come from? They come from patent US4315928A.

- RUN DESCRIPTION: in vivo
- SETTINGS: rat, in vivo, po
The label is TRUE for LD50 below 30 mg/kg and FALSE for LD50 equal to or exceeding 30 mg/kg.

Look over these answered cases.
| COMPOUND | CLASS |
| --- | --- |
| CCCCN(CCCC)SN(C)C(=O)ON=C(C)SC | FALSE |
| CSC(C)=NOC(=O)N(C)SN1CCCCC1 | FALSE |
| CN(SN1CCOCC1)C(=O)ON=C1CSCCS1 | TRUE |

Q: Given the entry CC(=NOC(=O)N(C)SN1CCOCC1)SC(C)C , would its reported LD50 be below 30 mg/kg?
Ans: TRUE

Q: Now consider CC1OCSC1=NOC(=O)N(C)SN1CCOCC1 (stereo not drawn) .
Ans: TRUE

Q: Also check CC(=NOC(=O)N(C)SN(C)C)SC(C)C
Ans: TRUE

Q: What about this compound? CCN(CC)SN(C)C(=O)ON=C(C)SC
Ans: FALSE

Q: And what about the compound CSC(C)(C)C=NOC(=O)N(C)SN1CCOCC1 ?
Ans: TRUE

###

- Tested on: green beans
- RUN DESCRIPTION: Phytotoxicity Test, green beans
- Assay type: in vivo
- Set-up: key: A rating of 1 indicates no perceptible injury; ratings of 2, 3 and 4 indicate intermediate degrees of injury; ratings of 2, 3 and 4 indicate intermediate degrees of injury; ratings of 2, 3 and 4 indicate intermediate degrees of injury; 5 indicates the plant was dead
- SETTINGS: ten days
In this section, each of the compounds is paired with its reported Crop Phytotoxicity, Injury Rating at 2500 ppm, GB.
Please state the value as a number alone, without comment.

Example cases with answers are listed next.
| SMILES TEXT | REPORTED VALUE |
| --- | --- |
| CCSC(C)=NOC(=O)N(C)SN1CCOCC1 | 1 |
| CN(SN1CCOCC1)C(=O)ON=CC(C)(C)C#N | 1 |

Please examine the following record next.
Q: // query Crop Phytotoxicity, Injury Rating at 2500 ppm, GB value for entry CN(SN1CCOCC1)C(=O)ON=C1CSCCS1
Ans: 1

###

- Test system: soybeans
- RUN DESCRIPTION: Phytotoxicity Test, soybeans
- Assay type: in vivo
- Set-up: key: A rating of 1 indicates no perceptible injury; ratings of 2, 3 and 4 indicate intermediate degrees of injury; ratings of 2, 3 and 4 indicate intermediate degrees of injury; ratings of 2, 3 and 4 indicate intermediate degrees of injury; 5 indicates the plant was dead
- SETTINGS: ten days
Crop Phytotoxicity, Injury Rating at 2500 ppm, SOYBN. overview
Answer field: number only, no words.

| SMILES TEXT | REPORTED VALUE |
| --- | --- |
| CSC(C)=NOC(=O)N(C)SN(C)C | 1 |

Q: Quick one: Crop Phytotoxicity, Injury Rating at 2500 ppm, SOYBN. of CN(C)SN(C)C(=O)ON=C1CSCCS1 ?
Ans: 1

Q: Proceed to CC(=NOC(=O)N(C)SN1CCOCC1)SC(C)C
Ans: 1

###

- RUN DESCRIPTION: in vivo
- SETTINGS: rat, in vivo, po
QUANTITY MEASURED: LD50
Please make sure the unit comes right after the number.

| COMPOUND | LD50 |
| --- | --- |
| CCSC(C)=NOC(=O)N(C)SN1CCOCC1 [Compound 4] | 141 mg/kg |
| CSC(C)=NOC(=O)N(C)SN(C)C [Compound 11] | 141 mg/kg |
| CC(=NOC(=O)N(C)SN1CCOCC1)SCCC#N [Compound 8] | 22 mg/kg |

Kindly review the next compound as well.
Q: # query: LD50 of entry CN(C)SN(C)C(=O)ON=C1CSCCS1 [Compound 23]
Ans: 15 mg/kg
